Molecular target: T1, monovalent hVISTA-ECD (human VISTA extracellular domain with His tail) (human, UniProt Q9H7M9 33-193)
T1 construct: analyte flowed over captured antibody; also called huVISTA-His
T1 sequence (Q9H7M9 other isoform, or with tags, fused parts or gaps limits assumed): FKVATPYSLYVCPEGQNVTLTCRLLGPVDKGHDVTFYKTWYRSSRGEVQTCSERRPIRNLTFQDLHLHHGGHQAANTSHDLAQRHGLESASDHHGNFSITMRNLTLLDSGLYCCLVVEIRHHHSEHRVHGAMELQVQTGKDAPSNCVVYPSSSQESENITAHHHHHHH
Assay: SPR, pH 6.0
Method: Binding of several preparations of each of the '029 progeny clones and of the parent '029 antibodies, formatted as IgG1.3 antibodies, to human VISTA at pH 6.0 and 7.4 was measured by Surface plasmon resonance (SPR). SPR analysis was performed to measure koff and KD binding affinity measurements for VISTA Abs at acidic and neutral pHs using a Biacore® T100 instrument (GE Healthcare). […] The affinity constant, KD was calculated as the ratio of rate constants koff/kₒₙ for each VISTA antibody. […]
Reported koff values are given for each entry in this list.
Field: numeric (s⁻¹). Do not append units.

Examples from the recorded data:
binder | koff (s⁻¹)
P1-064392 (41F11_HC_Mutant: D31E/Y50W/S55E/Y100E 41F11_LC_Mutant: V29D/A64G/Q89E/R91T) (antibody, V domains shown, Kabat positions; also called P1-064392-1) VH: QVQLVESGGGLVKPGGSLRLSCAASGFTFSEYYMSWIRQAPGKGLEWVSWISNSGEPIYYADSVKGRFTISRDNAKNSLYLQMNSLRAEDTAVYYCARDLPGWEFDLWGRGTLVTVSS VL: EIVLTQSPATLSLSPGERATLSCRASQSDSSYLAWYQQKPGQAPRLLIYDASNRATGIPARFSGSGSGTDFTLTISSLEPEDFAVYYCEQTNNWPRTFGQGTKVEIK | 0.012
P1-064510 (41F11_Vk_A25E/V29D/A64G/R91T) (antibody, V domains shown, also called P1-064510-1) VH: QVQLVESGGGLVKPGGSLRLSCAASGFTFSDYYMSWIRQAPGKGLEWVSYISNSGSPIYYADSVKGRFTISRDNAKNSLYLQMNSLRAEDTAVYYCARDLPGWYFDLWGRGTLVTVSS VL: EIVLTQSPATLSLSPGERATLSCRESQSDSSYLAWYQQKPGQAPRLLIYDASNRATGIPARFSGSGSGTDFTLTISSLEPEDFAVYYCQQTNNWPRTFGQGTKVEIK | 0.0036
P1-065326 (41F11_VH_D31E/Y50W/S55E/L96E/Y100E VK_A64G) (antibody, V domains shown, Kabat positions; also called P1-065326-1) VH: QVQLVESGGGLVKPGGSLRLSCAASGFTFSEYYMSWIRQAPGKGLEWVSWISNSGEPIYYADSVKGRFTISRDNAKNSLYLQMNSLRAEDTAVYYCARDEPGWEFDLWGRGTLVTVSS VL: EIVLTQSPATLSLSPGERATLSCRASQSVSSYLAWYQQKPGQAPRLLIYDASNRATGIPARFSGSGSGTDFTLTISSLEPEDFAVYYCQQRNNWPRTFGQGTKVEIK | 0.00051

[Q] I would be grateful if you could share the reported koff for P1-070976 (41F11_VH_T28P/Y50W/S55E/D95H/L96E/P97E/Y100E; Vk_A64G) (antibody, human IgG1, kappa, V domains shown, IgG1.3; also called P1-070976-7; acidic pH selective VISTA.4 progeny) VH: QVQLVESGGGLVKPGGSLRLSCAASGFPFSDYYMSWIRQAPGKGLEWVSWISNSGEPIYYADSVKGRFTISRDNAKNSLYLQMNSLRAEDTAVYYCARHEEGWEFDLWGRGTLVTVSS VL: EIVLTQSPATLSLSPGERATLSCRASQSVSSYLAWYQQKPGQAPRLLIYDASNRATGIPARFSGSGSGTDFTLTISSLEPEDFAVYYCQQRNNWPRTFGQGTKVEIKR .
[A] 0.0028
